System: OVCAR-8 ovarian
Assay: NCI tumour cell line growth inhibition, 48 h
QUANTITY KIND: TGI (µM)
API: value field is a number in µM; no unit string.

CCC1CC2C(=O)N(c3ccccc3)C(=O)C2c2[nH]c3ccccc3c21 (configuration not stated)    35.2
OCc1ccc(N2CCc3cccc(F)c3C2)cc1Cl    41.9
O=C(Nc1cc(C(F)(F)F)ccc1Cl)c1ccc(NC2=C(Cl)C(=O)N(Cc3ccccc3)C2=O)cc1    41.3

Task: Under OVCAR-8 ovarian, report TGI for CC1=C[C@H]2c3c([nH]c4ccccc34)C(c3c[nH]c4ccccc34)[C@H]2CC1 (some centres not stated)
Output: 28
